Values from ChEMBL document CHEMBL4609974

The entries below come with measured IC50 values attached.
# Test system: Plasmodium falciparum
# experiment: Antimalarial activity against chloroquine-resistant Plasmodium falciparum K1
# Format: functional, organism-based

Look over these answered cases.
>  <compound>
CC[C@H]1OC(=O)C[C@@H](O)[C@H](C)C(O[C@@H]2O[C@H](C)[C@@H](O)[C@H](N(C)C)[C@H]2O)C(CC=O)C[C@@H](C)C(=N\OCCCc2cn(-c3cnc4ccccc4c3)nn2)/C=C/C(C)=C/[C@@H]1CO[C@@H]1O[C@H](C)[C@@H](O)[C@@H](OC)[C@H]1OC (some centres undefined)

>  <system_under_test>
Plasmodium falciparum

>  <IC50>
0.73 µg/mL

$$$$
>  <compound>
COc1cccc(-n2cc(CNc3ccc4nc(-c5ccccc5)c(-c5ccccc5)nc4c3)nn2)c1

>  <system_under_test>
Plasmodium falciparum

>  <IC50>
7.1 to 153 µM

$$$$
>  <compound>
O=[N+]([O-])c1cccc(-n2cc(CNc3ccc4nc(-c5ccccc5)c(-c5ccccc5)nc4c3)nn2)c1

>  <system_under_test>
Plasmodium falciparum

>  <IC50>
7.1 to 153 µM

$$$$

## Task GET /values?readout=IC50&item= "Fc1ccc(-c2nc3ccc(NCc4cn(-c5cccc(C(F)(F)F)c5)nn4)cc3nc2-c2ccc(F)cc2)cc1"
## Result 7.1 to 153 µM

## Task GET /values?readout=IC50&item= "FC(F)(F)c1cccc(-n2cc(CN(Cc3cn(-c4cccc(C(F)(F)F)c4)nn3)c3ccc4nc(-c5ccccc5)c(-c5ccccc5)nc4c3)nn2)c1"
## Result 9.76 to 3540 µM

## Task GET /values?readout=IC50&item= "Fc1ccc(-c2nc3ccc(N(Cc4cn(-c5ccccc5)nn4)Cc4cn(-c5ccccc5)nn4)cc3nc2-c2ccc(F)cc2)cc1"
## Result 9.76 to 3540 µM

## Task GET /values?readout=IC50&item= "c1ccc(-c2nc3ccc(N(Cc4cn(-c5ccccc5)nn4)Cc4cn(-c5ccccc5)nn4)cc3nc2-c2ccccc2)cc1"
## Result 9.76 to 3540 µM

## Task GET /values?readout=IC50&item= CC[C@H]1OC(=O)C[C@@H](O)[C@H](C)C(O[C@@H]2O[C@H](C)[C@@H](O)[C@H](N(C)C)[C@H]2O)C(CC=O)C[C@@H](C)C(=N\OCc2cn(-c3cnc4ccccc4c3)nn2)/C=C/C(C)=C/[C@@H]1CO[C@@H]1O[C@H](C)[C@@H](O)[C@@H](OC)[C@H]1OC (some centres undefined)
## Result 2 µg/mL

## Task GET /values?readout=IC50&item= "O=[N+]([O-])c1cccc(-n2cc(CNc3ccc4nc(-c5ccc(F)cc5)c(-c5ccc(F)cc5)nc4c3)nn2)c1"
## Result 7.1 to 153 µM
